The following compounds have recorded GI50 on SK-OV-3.
measured_quantity: GI50 (µM)

CN(C)c1nc(NCCNS(=O)(=O)c2ccc(C(=O)/C=C/c3ccccc3)cc2)nc(N2CCOCC2)n1 [23a]    15.6
Nc1nc(N)c2c(n1)NC(c1ccc(F)cc1)CC(c1ccc(Nc3nc(NCCO)nc(Nc4ccc(Cl)cc4)n3)cc1)=N2 (stereo not drawn) [33f]    12.9
COc1cc(/C=C/C(=O)c2ccc(S(=O)(=O)NCCNc3nc(N(C)C)nc(N4CCOCC4)n3)cc2)cc(OC)c1OC [23d]    14.3
COc1cc(/C=C/C(=O)c2ccc(C)cc2)ccc1Oc1nc(Nc2ccc(F)cc2)nc(N(C)C)n1 [21b]    48.9
COc1cc(/C=C/C(=O)c2cc(OC)c(OC)c(OC)c2)ccc1Oc1nc(NCCO)nc(N2CCOCC2)n1 [20d]    2.44
CN(C)c1nc(NCCNS(=O)(=O)c2ccc(C(=O)/C=C/c3ccc(Cl)cc3)cc2)nc(N2CCOCC2)n1 [23e]    15.3
COc1cc(/C=C/C(=O)c2cc(OC)c(OC)c(OC)c2)ccc1Oc1nc(Nc2ccc(F)cc2)nc(N(C)C)n1 [21d]    8.42
CN(C)c1nc(NCCNS(=O)(=O)c2ccc(C(=O)/C=C/c3ccccc3)cc2)nc(Nc2ccc(F)cc2)n1 [24a]    13
Cc1ccc(C2CC(c3ccc(Nc4nc(NCCO)nc(Nc5ccc(Cl)cc5)n4)cc3)=Nc3c(N)nc(N)nc3N2)cc1 (stereo not drawn) [33b]    2.69
COc1cc(/C=C/C(=O)c2ccc(C)cc2)ccc1Oc1nc(NCCO)nc(N2CCOCC2)n1 [20b]    23
CN(C)c1nc(NCCNS(=O)(=O)c2ccc(C(=O)/C=C/c3ccc(C(F)(F)F)cc3)cc2)nc(Nc2ccc(F)cc2)n1 [24g]    13.7
COc1cc(/C=C/C(=O)c2ccccc2)ccc1Oc1nc(Nc2ccc(F)cc2)nc(N(C)C)n1 [21a]    48.6

====

Each record here notes measured CC50.
Tested on: HCT-116
experiment_notes: cells
settings: Homo sapiens, HCT-116, 48 h, read-out: LC50
measured_quantity: CC50

CN(C)c1nc(NCCNS(=O)(=O)c2ccc(C(=O)/C=C/c3ccccc3)cc2)nc(Nc2ccc(F)cc2)n1 [24a]    6.1 µM
COc1cc(/C=C/C(=O)c2ccc(S(=O)(=O)NCCNc3nc(N(C)C)nc(N4CCOCC4)n3)cc2)cc(OC)c1OC [23d]    5.92 µM
CN(C)c1nc(NCCNS(=O)(=O)c2ccc(C3=Nc4c(N)nc(N)nc4NC(c4ccc(C(F)(F)F)cc4)C3)cc2)nc(N2CCOCC2)n1 (centres unmarked) [30g]    > 100 µM
CN(C)c1nc(NCCNS(=O)(=O)c2ccc(C(=O)/C=C/c3ccc(F)cc3)cc2)nc(Nc2ccc(F)cc2)n1 [24f]    3.01 µM
CN(C)c1nc(NCCNS(=O)(=O)c2ccc(C3=Nc4c(N)nc(N)nc4NC(c4ccc(F)cc4)C3)cc2)nc(Nc2ccc(F)cc2)n1 (centres unmarked) [31f]    > 100 µM
Nc1nc(N)c2c(n1)NC(c1ccc(C(F)(F)F)cc1)CC(c1ccc(Nc3nc(NCCO)nc(Nc4ccc(Cl)cc4)n3)cc1)=N2 (centres unmarked) [33g]    5.54 µM
Nc1nc(N)c2c(n1)NC(c1ccc(F)cc1)CC(c1ccc(Nc3nc(NCCO)nc(Nc4ccc(Cl)cc4)n3)cc1)=N2 (centres unmarked) [33f]    5.23 µM
COc1cc(C2CC(c3ccc(Cl)cc3)=Nc3c(N)nc(N)nc3N2)ccc1Oc1nc(Nc2ccc(F)cc2)nc(N(C)C)n1 (centres unmarked) [29e]    > 100 µM
CN(C)c1nc(NCCNS(=O)(=O)c2ccc(C3=Nc4c(N)nc(N)nc4NC(c4ccc(Cl)cc4)C3)cc2)nc(Nc2ccc(F)cc2)n1 (centres unmarked) [31e]    > 100 µM
COc1ccc(/C=C/C(=O)c2ccc(S(=O)(=O)NCCNc3nc(Nc4ccc(F)cc4)nc(N(C)C)n3)cc2)cc1 [24c]    7.07 µM
Cc1ccc(C2CC(c3ccc(Nc4nc(NCCO)nc(Nc5ccc(Cl)cc5)n4)cc3)=Nc3c(N)nc(N)nc3N2)cc1 (centres unmarked) [33b]    5.45 µM
Nc1nc(N)c2c(n1)NC(c1ccccc1)CC(c1ccc(Nc3nc(NCCO)nc(Nc4ccc(Cl)cc4)n3)cc1)=N2 (centres unmarked) [33a]    5.33 µM
Cc1ccc(C2CC(c3ccc(S(=O)(=O)NCCNc4nc(Nc5ccc(F)cc5)nc(N(C)C)n4)cc3)=Nc3c(N)nc(N)nc3N2)cc1 (centres unmarked) [31b]    > 100 µM
COc1cc(/C=C/C(=O)c2cc(OC)c(OC)c(OC)c2)ccc1Oc1nc(Nc2ccc(F)cc2)nc(N(C)C)n1 [21d]    7.24 µM
CN(C)c1nc(NCCNS(=O)(=O)c2ccc(C(=O)/C=C/c3ccc(C(F)(F)F)cc3)cc2)nc(N2CCOCC2)n1 [23g]    33.5 µM
CN(C)c1nc(NCCNS(=O)(=O)c2ccc(C(=O)/C=C/c3ccc(F)cc3)cc2)nc(N2CCOCC2)n1 [23f]    16.8 µM
CN(C)c1nc(NCCNS(=O)(=O)c2ccc(C(=O)/C=C/c3ccc(Cl)cc3)cc2)nc(N2CCOCC2)n1 [23e]    50.7 µM
CN(C)c1nc(NCCNS(=O)(=O)c2ccc(C3=Nc4c(N)nc(N)nc4NC(c4ccc(C(F)(F)F)cc4)C3)cc2)nc(Nc2ccc(F)cc2)n1 (centres unmarked) [31g]    86 µM
COc1cc(/C=C/C(=O)c2ccc(C)cc2)ccc1Oc1nc(Nc2ccc(F)cc2)nc(N(C)C)n1 [21b]    24.4 µM
COc1cc(/C=C/C(=O)c2ccc(S(=O)(=O)NCCNc3nc(Nc4ccc(F)cc4)nc(N(C)C)n3)cc2)cc(OC)c1OC [24d]    7.66 µM
CN(C)c1nc(NCCNS(=O)(=O)c2ccc(C(=O)/C=C/c3ccc(C(F)(F)F)cc3)cc2)nc(Nc2ccc(F)cc2)n1 [24g]    3.13 µM
COc1cc(/C=C/C(=O)c2ccccc2)ccc1Oc1nc(Nc2ccc(F)cc2)nc(N(C)C)n1 [21a]    45.5 µM
COc1cc(/C=C/C(=O)c2cc(OC)c(OC)c(OC)c2)ccc1Oc1nc(NCCO)nc(N2CCOCC2)n1 [20d]    6.78 µM
COc1cc(C2CC(c3ccc(C(F)(F)F)cc3)=Nc3c(N)nc(N)nc3N2)ccc1Oc1nc(Nc2ccc(F)cc2)nc(N(C)C)n1 (centres unmarked) [29g]    7.56 µM
CN(C)c1nc(NCCNS(=O)(=O)c2ccc(C(=O)/C=C/c3ccccc3)cc2)nc(N2CCOCC2)n1 [23a]    7.1 µM
Cc1ccc(/C=C/C(=O)c2ccc(S(=O)(=O)NCCNc3nc(Nc4ccc(F)cc4)nc(N(C)C)n3)cc2)cc1 [24b]    6.17 µM
Nc1nc(N)c2c(n1)NC(c1ccc(Cl)cc1)CC(c1ccc(Nc3nc(NCCO)nc(Nc4ccc(Cl)cc4)n3)cc1)=N2 (centres unmarked) [33e]    5.19 µM
CN(C)c1nc(NCCNS(=O)(=O)c2ccc(C3=Nc4c(N)nc(N)nc4NC(c4ccccc4)C3)cc2)nc(Nc2ccc(F)cc2)n1 (centres unmarked) [31a]    > 100 µM
CN(C)c1nc(NCCNS(=O)(=O)c2ccc(C(=O)/C=C/c3ccc(Cl)cc3)cc2)nc(Nc2ccc(F)cc2)n1 [24e]    3.11 µM

====

The following compounds have recorded log10 of GI50 on COLO 205.
measured_quantity: log10 of GI50 (log10 of the value in µM)

CN(C)c1nc(NCCNS(=O)(=O)c2ccc(C3=Nc4c(N)nc(N)nc4NC(c4ccc(F)cc4)C3)cc2)nc(Nc2ccc(F)cc2)n1 (centres unmarked) [31f]    1.07
Cc1ccc(/C=C/C(=O)c2ccc(S(=O)(=O)NCCNc3nc(Nc4ccc(F)cc4)nc(N(C)C)n3)cc2)cc1 [24b]    0.81
CN(C)c1nc(NCCNS(=O)(=O)c2ccc(C3=Nc4c(N)nc(N)nc4NC(c4ccccc4)C3)cc2)nc(Nc2ccc(F)cc2)n1 (centres unmarked) [31a]    1.21
COc1cc(/C=C/C(=O)c2ccc(C)cc2)ccc1Oc1nc(NCCO)nc(N2CCOCC2)n1 [20b]    0.42
CN(C)c1nc(NCCNS(=O)(=O)c2ccc(C3=Nc4c(N)nc(N)nc4NC(c4ccc(Cl)cc4)C3)cc2)nc(Nc2ccc(F)cc2)n1 (centres unmarked) [31e]    0.75
COc1cc(/C=C/C(=O)c2ccc(S(=O)(=O)NCCNc3nc(N(C)C)nc(N4CCOCC4)n3)cc2)cc(OC)c1OC [23d]    0.33
CN(C)c1nc(NCCNS(=O)(=O)c2ccc(C(=O)/C=C/c3ccccc3)cc2)nc(Nc2ccc(F)cc2)n1 [24a]    0.74
Nc1nc(N)c2c(n1)NC(c1ccc(F)cc1)CC(c1ccc(Nc3nc(NCCO)nc(Nc4ccc(Cl)cc4)n3)cc1)=N2 (centres unmarked) [33f]    0.17
COc1ccc(/C=C/C(=O)c2ccc(S(=O)(=O)NCCNc3nc(Nc4ccc(F)cc4)nc(N(C)C)n3)cc2)cc1 [24c]    0.54
Nc1nc(N)c2c(n1)NC(c1ccc(C(F)(F)F)cc1)CC(c1ccc(Nc3nc(NCCO)nc(Nc4ccc(Cl)cc4)n3)cc1)=N2 (centres unmarked) [33g]    0.12
CN(C)c1nc(NCCNS(=O)(=O)c2ccc(C3=Nc4c(N)nc(N)nc4NC(c4ccc(C(F)(F)F)cc4)C3)cc2)nc(Nc2ccc(F)cc2)n1 (centres unmarked) [31g]    0.99
CN(C)c1nc(NCCNS(=O)(=O)c2ccc(C(=O)/C=C/c3ccc(Cl)cc3)cc2)nc(Nc2ccc(F)cc2)n1 [24e]    0.78
CN(C)c1nc(NCCNS(=O)(=O)c2ccc(C(=O)/C=C/c3ccccc3)cc2)nc(N2CCOCC2)n1 [23a]    1.31
COc1cc(/C=C/C(=O)c2cc(OC)c(OC)c(OC)c2)ccc1Oc1nc(NCCO)nc(N2CCOCC2)n1 [20d]    0.32
Nc1nc(N)c2c(n1)NC(c1ccc(Cl)cc1)CC(c1ccc(Nc3nc(NCCO)nc(Nc4ccc(Cl)cc4)n3)cc1)=N2 (centres unmarked) [33e]    0.18
COc1cc(/C=C/C(=O)c2ccc(C)cc2)ccc1Oc1nc(Nc2ccc(F)cc2)nc(N(C)C)n1 [21b]    1.62
CN(C)c1nc(NCCNS(=O)(=O)c2ccc(C(=O)/C=C/c3ccc(F)cc3)cc2)nc(N2CCOCC2)n1 [23f]    1.16
Nc1nc(N)c2c(n1)NC(c1ccccc1)CC(c1ccc(Nc3nc(NCCO)nc(Nc4ccc(Cl)cc4)n3)cc1)=N2 (centres unmarked) [33a]    0.25
CN(C)c1nc(NCCNS(=O)(=O)c2ccc(C(=O)/C=C/c3ccc(F)cc3)cc2)nc(Nc2ccc(F)cc2)n1 [24f]    0.38
CN(C)c1nc(NCCNS(=O)(=O)c2ccc(C(=O)/C=C/c3ccc(C(F)(F)F)cc3)cc2)nc(N2CCOCC2)n1 [23g]    1.18
Cc1ccc(C2CC(c3ccc(S(=O)(=O)NCCNc4nc(Nc5ccc(F)cc5)nc(N(C)C)n4)cc3)=Nc3c(N)nc(N)nc3N2)cc1 (centres unmarked) [31b]    1.06
CN(C)c1nc(NCCNS(=O)(=O)c2ccc(C(=O)/C=C/c3ccc(Cl)cc3)cc2)nc(N2CCOCC2)n1 [23e]    1.22
Cc1ccc(C2CC(c3ccc(Nc4nc(NCCO)nc(Nc5ccc(Cl)cc5)n4)cc3)=Nc3c(N)nc(N)nc3N2)cc1 (centres unmarked) [33b]    0.22
COc1cc(/C=C/C(=O)c2ccc(S(=O)(=O)NCCNc3nc(Nc4ccc(F)cc4)nc(N(C)C)n3)cc2)cc(OC)c1OC [24d]    0.68
COc1cc(/C=C/C(=O)c2cc(OC)c(OC)c(OC)c2)ccc1Oc1nc(Nc2ccc(F)cc2)nc(N(C)C)n1 [21d]    0.65
CN(C)c1nc(NCCNS(=O)(=O)c2ccc(C(=O)/C=C/c3ccc(C(F)(F)F)cc3)cc2)nc(Nc2ccc(F)cc2)n1 [24g]    1.05
COc1cc(/C=C/C(=O)c2ccccc2)ccc1Oc1nc(Nc2ccc(F)cc2)nc(N(C)C)n1 [21a]    1.18
CN(C)c1nc(NCCNS(=O)(=O)c2ccc(C3=Nc4c(N)nc(N)nc4NC(c4ccc(C(F)(F)F)cc4)C3)cc2)nc(N2CCOCC2)n1 (centres unmarked) [30g]    1.22
